src = paper PMC6273807

Values of IC50 reported for ERRγ (Homo sapiens, UniProt P62508) appear below.

Check out these entries, answers already filled in.
*Q* Returns the measured IC50 for the input compound. Input: CN(C)CCOc1ccc(/C(=C(/CCCO)c2ccc3nccn3c2)c2ccc(O)cc2)cc1 [Compound 15i]
*A* > 10 µM

*Q* Repeat with COCCC/C(=C(\c1ccc(O)cc1)c1ccc(OCCN(C)C)cc1)c1ccncc1 [Compound 13b]
*A* > 10 µM

*Q* Repeat with CN(C)CCOc1ccc(/C(=C(/CCCO)c2ccc(O)cc2)c2ccc(O)cc2)cc1 [Compound 15b]
*A* 2.32 µM

*Q* Repeat with CN(C)CCOc1ccc(/C(=C(/CCCO)c2ccc(N3CCOCC3)nc2)c2ccc(O)cc2)cc1 [Compound 15f]
*A* > 10 µM

New cases:
*Q* Returns the measured IC50 for the input compound. Input: CN(C)CCOc1ccc(/C(=C(/CCCO)c2ccc3cnn(C)c3c2)c2ccc(O)cc2)cc1 [Compound 15g]
*A* 0.44 µM
